Value source: the supplement of paper PMC11061612

- System: H-EMC-SS (Chondrosarcoma)
- assay notes: combination Emax (second highest fraction inhibited in the dose matrix, 72 h); higher = more inhibition; extreme values may be limits of the assay

| compound | combination Emax |
| --- | --- |
| CC(=O)c1c(C)c2cnc(Nc3ccc(N4CCNCC4)cn3)nc2n(C2CCCC2)c1=O [Palbociclib] + CC1(C)CCC(CN2CCN(c3ccc(C(=O)NS(=O)(=O)c4ccc(NCC5CCOCC5)c([N+](=O)[O-])c4)c(Oc4cnc5[nH]ccc5c4)c3)CC2)=C(c2ccc(Cl)cc2)C1 [Venetoclax] (first compound max 10 µM, 7x7, partner max 1 µM) | 0.284 |
| Cc1cc2ncnn2cc1Nc1ncc2c(n1)n(C1CCOCC1)c(=O)n2C [AZD7648] + C[C@@H]1COCCN1C2=NC(=NC(=C2)C3(CC3)[S@](=N)(=O)C)C4=C5C=CNC5=NC=C4 [AZD6738] (first compound max 10 µM, 7x7, partner max 10 µM) | 0.475 |
| CN(CCO)CC[C@H](CSc1ccccc1)Nc1ccc(S(=O)(=O)NC(=O)c2ccc(N3CCC([C@@H](O)c4ccccc4-c4ccc(Cl)cc4)CC3)cc2)cc1S(=O)(=O)C(F)(F)F [AZD4320] + CC(=O)O[C@H]1C(=O)[C@@]2(C)[C@H]([C@H](OC(=O)c3ccccc3)[C@]3(O)C[C@H](OC(=O)[C@H](O)[C@@H](NC(=O)c4ccccc4)c4ccccc4)C(C)=C1C3(C)C)[C@]1(OC(C)=O)CO[C@@H]1C[C@@H]2O [Paclitaxel] (first compound max 1 µM, 7x7, partner max 3 µM) | 0.672 |

====

- Tested on: LC4-1 (B-Lymphoblastic Leukemia);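 note: after 72 h of two-drug dosing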
- assay notes: Bliss excess, mean over the matrix (fraction); higher = more synergy
# Bliss excess per entry

| compound | Bliss excess |
| --- | --- |
| C[C@@H](Oc1cc(-c2cnn(C3CCNCC3)c2)cnc1N)c1c(Cl)ccc(F)c1Cl [Crizotinib] + Cn1cnc2c(F)c(Nc3ccc(Br)cc3Cl)c(C(=O)NOCCO)cc21 [Selumetinib] (first compound max 10 µM, 7x7, partner max 10 µM) | -0.0198 |
| Cc1nc(-c2cn3c(n2)-c2ccc(-c4cnn(C(C)(C)C(N)=O)c4)cc2OCC3)n(C(C)C)n1 [Taselisib] + O=C(Nc1ccc2[nH]nc(-c3ccncc3)c2c1)[C@@H]1CCN(CC(=O)N2CCN(c3ccc(-c4ncccn4)cc3)CC2)C1 [SCH772984] (first compound max 10 µM, 7x7, partner max 5 µM) | 0.0661 |
| CCc1c2c(nc3ccc(O)cc13)-c1cc3c(c(=O)n1C2)COC(=O)[C@]3(O)CC [SN-38] + CN(C)CCCOc1ccc(-c2ccc3ncc4c(c3c2)n(C2CCOCC2)c(=O)n4C)cn1 [AZD0156] (first compound max 0.3 µM, 7x7, partner max 1 µM) | -0.0587 |
| COc1nnc2ccc(N3CCC(c4ccc(OCCN5CCN(C)C(=O)[C@H]5C)cc4)CC3)nn12 [AZD5153] + CC1(C)CCC(CN2CCN(c3ccc(C(=O)NS(=O)(=O)c4ccc(NCC5CCOCC5)c([N+](=O)[O-])c4)c(Oc4cnc5[nH]ccc5c4)c3)CC2)=C(c2ccc(Cl)cc2)C1 [Venetoclax] (first compound max 1 µM, 7x7, partner max 1 µM) | -0.0482 |

====

- System: GI-1 (Glioblastoma)
- assay notes: combination Emax (second highest fraction inhibited in the dose matrix, 72 h); higher = more inhibition; extreme values may be limits of the assay
combination Emax vs 0.8: at or above is 1 (yes), below is 0 (no).

| molecule | qualitative label |
| --- | --- |
| CC1(C)CCC(CN2CCN(c3ccc(C(=O)NS(=O)(=O)c4ccc(NCC5CCOCC5)c([N+](=O)[O-])c4)c(Oc4cnc5[nH]ccc5c4)c3)CC2)=C(c2ccc(Cl)cc2)C1 [Venetoclax] + CN(C)CCCOc1ccc(-c2ccc3ncc4c(c3c2)n(C2CCOCC2)c(=O)n4C)cn1 [AZD0156] (first compound max 1 µM, 7x7, partner max 1 µM) | 0 (no) |
| CN(CCO)CC[C@H](CSc1ccccc1)Nc1ccc(S(=O)(=O)NC(=O)c2ccc(N3CCC([C@@H](O)c4ccccc4-c4ccc(Cl)cc4)CC3)cc2)cc1S(=O)(=O)C(F)(F)F [AZD4320] + CS(=O)(=O)CCNCc1ccc(-c2ccc3ncnc(Nc4ccc(OCc5cccc(F)c5)c(Cl)c4)c3c2)o1 [Lapatinib] (first compound max 1 µM, 7x7, partner max 10 µM) | 1 (yes) |
| CC1(C)CCC(CN2CCN(c3ccc(C(=O)NS(=O)(=O)c4ccc(NCC5CCOCC5)c([N+](=O)[O-])c4)c(Oc4cnc5[nH]ccc5c4)c3)CC2)=C(c2ccc(Cl)cc2)C1 [Venetoclax] + C[C@@H]1COCCN1C2=NC(=NC(=C2)C3(CC3)[S@](=N)(=O)C)C4=C5C=CNC5=NC=C4 [AZD6738] (first compound max 1 µM, 7x7, partner max 10 µM) | 1 (yes) |
| CN(CCO)CC[C@H](CSc1ccccc1)Nc1ccc(S(=O)(=O)NC(=O)c2ccc(N3CCC([C@@H](O)c4ccccc4-c4ccc(Cl)cc4)CC3)cc2)cc1S(=O)(=O)C(F)(F)F [AZD4320] + CCN(CCO)CCCOc1ccc2c(Nc3cc(CC(=O)Nc4cccc(F)c4)[nH]n3)ncnc2c1 [AZD2811] (first compound max 1 µM, 7x7, partner max 1 µM) | 0 (no) |
| O=C(c1cc(Cc2n[nH]c(=O)c3ccccc23)ccc1F)N1CCN(C(=O)C2CC2)CC1 [Olaparib] + CN(CC[C@H](CSC1=CC=CC=C1)NC2=C(C=C(C=C2)S(=O)(=O)NC(=O)C3=CC=C(C=C3)N4CCC(CC4)[C@H](C5=CC=CC=C5C6=CC=C(C=C6)Cl)O)S(=O)(=O)C(F)(F)F)CCO [AZD4320] (first compound max 10 µM, 7x7, partner max 1 µM) | 0 (no) |
| NC1(C(=O)N[C@@H](CCO)c2ccc(Cl)cc2)CCN(c2ncnc3[nH]ccc23)CC1 [Capivasertib] + Cn1cnc2c(F)c(Nc3ccc(Br)cc3Cl)c(C(=O)NOCCO)cc21 [Selumetinib] (first compound max 10 µM, 7x7, partner max 10 µM) | 0 (no) |
| COc1nnc2ccc(N3CCC(c4ccc(OCCN5CCN(C)C(=O)[C@H]5C)cc4)CC3)nn12 [AZD5153] + CCN(CCO)CCCOc1ccc2c(Nc3cc(CC(=O)Nc4cccc(F)c4)[nH]n3)ncnc2c1 [AZD2811] (first compound max 1 µM, 7x7, partner max 1 µM) | 1 (yes) |
